measuredTarget: CYP17 (human testicular microsome) (Homo sapiens, UniProt P05093)
Construct: using microsomal fraction from human testis (Celsis Cat #S00110) as the enzyme source; tissue Celsis S00110; host or cells: human testis microsomal fraction
Sequence (P05093 1-508): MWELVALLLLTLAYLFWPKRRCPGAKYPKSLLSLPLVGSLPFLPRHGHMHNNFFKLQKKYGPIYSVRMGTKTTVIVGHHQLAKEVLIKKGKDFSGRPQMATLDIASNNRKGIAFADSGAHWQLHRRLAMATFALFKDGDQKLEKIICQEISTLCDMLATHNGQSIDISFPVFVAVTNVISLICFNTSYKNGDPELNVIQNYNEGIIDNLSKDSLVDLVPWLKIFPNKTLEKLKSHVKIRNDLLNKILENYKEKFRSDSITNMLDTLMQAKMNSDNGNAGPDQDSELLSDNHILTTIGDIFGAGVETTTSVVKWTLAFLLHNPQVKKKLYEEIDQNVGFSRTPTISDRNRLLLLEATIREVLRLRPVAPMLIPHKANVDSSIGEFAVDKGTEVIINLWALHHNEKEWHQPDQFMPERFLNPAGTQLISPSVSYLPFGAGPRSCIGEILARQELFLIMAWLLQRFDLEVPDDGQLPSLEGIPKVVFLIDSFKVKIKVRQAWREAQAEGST
assayExplanation: CYP17 enzymatic assay (% inhibition at 1 nM) (Biological Example 12)
Format: biochemical
testConditions: compound at 1 nM, read-out: CYP17 enzymatic assay % inhibition at 1 nM (Biological Example No. 12)
inhibition at 0.001 µM values for the compounds below.

Known inhibition at 0.001 µM results, listed for orientation:
| compound | measuredTarget | inhibition at 0.001 µM |
| --- | --- | --- |
| CC(C)C(=O)O[C@H]1CC[C@@]2(C)C(=CCC3C4=CC=C(c5cccnc5)[C@@]4(C)CCC32)C1 (stereo partly drawn) | CYP17 (human testicular microsome) (Homo sapiens, UniProt P05093) | 10 to 50% |
| Cc1cccc(C)c1C(=O)O[C@H]1CC[C@@]2(C)C(=CCC3C4=CC=C(c5cccnc5)[C@@]4(C)CCC32)C1 (stereo partly drawn) | CYP17 (human testicular microsome) (Homo sapiens, UniProt P05093) | < 10% |
| C[C@]12CCC3C(CC=C4C[C@H](O)CC[C@@]43C)C1=CC=C2c1cccnc1 (stereo partly drawn) | CYP17 (human testicular microsome) (Homo sapiens, UniProt P05093) | > 50% |
| CN1CC[C@@]2(C)C(=CC1=O)CC[C@H]1C3=CC=C(c4cnccn4)[C@@]3(C)CC[C@@H]12 | CYP17 (human testicular microsome) (Homo sapiens, UniProt P05093) | 10 to 50% |
| CO[C@H]1CC[C@@]2(C)C(=CCC3C2CC[C@]2(C)C(n4ccnc4)=CCC32)C1 (stereo partly drawn) | CYP17 (human testicular microsome) (Homo sapiens, UniProt P05093) | 10 to 50% |

# evaluate next
Quickly give me recorded inhibition at 0.001 µM for C[C@]12CCC(NC(=O)C3CCC3)CC1=CCC1C2CC[C@]2(C)C(n3ccnc3)=CCC12 (stereo partly drawn)
> 50%
